# credit: ChEMBL document CHEMBL3286304

Activity listing for selected compounds.
# Test system: Calf thymus DNA
# ASSAY_COMMENT: Binding affinity to calf thymus DNA assessed as hypsochromic shift at 50 uM at 25 degC at pH 7.4 after 10 mins by UV-vis spectrophotometry
# Assay type: nucleic-acid assay
# TEST_CONTEXT: Bos taurus
Report only the number, with the unit nm understood.

| SMILES_TEXT | Activity (nm) |
| --- | --- |
| O=C(CCCCCCCCC(=O)Nc1ccc(-c2c(-c3ccc(OCCN4CCCCC4)cc3)c3ccccc3oc2=O)cc1)Nc1ccc(-c2c(-c3ccc(OCCN4CCCCC4)cc3)c3ccccc3oc2=O)cc1 | 1.5 |
| O=C(CC(=O)Nc1ccc(-c2c(-c3ccc(OCCN4CCCCC4)cc3)c3ccccc3oc2=O)cc1)Nc1ccc(-c2c(-c3ccc(OCCN4CCCCC4)cc3)c3ccccc3oc2=O)cc1 | 2 |
| O=C(CCCCC(=O)Nc1ccc(-c2c(-c3ccc(OCCN4CCCCC4)cc3)c3ccccc3oc2=O)cc1)Nc1ccc(-c2c(-c3ccc(OCCN4CCCCC4)cc3)c3ccccc3oc2=O)cc1 | 1.5 |

Let us examine a further case.
Q. Recorded Activity for O=C(Nc1ccc(-c2c(-c3ccc(OCCN4CCCCC4)cc3)c3ccccc3oc2=O)cc1)c1cccc(C(=O)Nc2ccc(-c3c(-c4ccc(OCCN5CCCCC5)cc4)c4ccccc4oc3=O)cc2)c1 , please?
A. 0.5

----------
# Tested on: Calf thymus DNA
# ASSAY_COMMENT: Binding affinity to calf thymus DNA assessed as change in melting temperature at 5 uM after 10 mins by thermal denaturation assay
# Format: nucleic-acid assay
# TEST_CONTEXT: Bos taurus
MEASURED_METRIC: ΔTm (°C)
Your answer should be a plain number; it is taken to be in °C.

| SMILES_TEXT | READING |
| --- | --- |
| O=C(Nc1ccc(-c2c(-c3ccc(OCCN4CCCCC4)cc3)c3ccccc3oc2=O)cc1)c1cccc(C(=O)Nc2ccc(-c3c(-c4ccc(OCCN5CCCCC5)cc4)c4ccccc4oc3=O)cc2)c1 | 2 |
| O=C(CCCCC(=O)Nc1ccc(-c2c(-c3ccc(OCCN4CCCCC4)cc3)c3ccccc3oc2=O)cc1)Nc1ccc(-c2c(-c3ccc(OCCN4CCCCC4)cc3)c3ccccc3oc2=O)cc1 | 5.1 |

Q. What does the record list as ΔTm for O=C(CC(=O)Nc1ccc(-c2c(-c3ccc(OCCN4CCCCC4)cc3)c3ccccc3oc2=O)cc1)Nc1ccc(-c2c(-c3ccc(OCCN4CCCCC4)cc3)c3ccccc3oc2=O)cc1 ?
A. 6

Q. Any idea what ΔTm was measured for O=C(CCCCCCCCC(=O)Nc1ccc(-c2c(-c3ccc(OCCN4CCCCC4)cc3)c3ccccc3oc2=O)cc1)Nc1ccc(-c2c(-c3ccc(OCCN4CCCCC4)cc3)c3ccccc3oc2=O)cc1 ?
A. 2.5

----------
# System: Calf thymus DNA
# ASSAY_COMMENT: Binding affinity to calf thymus DNA assessed as hyperchromicity at 50 uM at 25 degC at pH 7.4 after 10 mins by UV-vis spectrophotometry
# Format: nucleic-acid assay
# TEST_CONTEXT: Bos taurus
MEASURED_METRIC: Activity (%)
Write the answer as a number in %, unit excluded.

Completed entries (count: 3):
| SMILES_TEXT | MEASURE_UNIT | Activity |
| --- | --- | --- |
| O=C(CCCCCCCCC(=O)Nc1ccc(-c2c(-c3ccc(OCCN4CCCCC4)cc3)c3ccccc3oc2=O)cc1)Nc1ccc(-c2c(-c3ccc(OCCN4CCCCC4)cc3)c3ccccc3oc2=O)cc1 | % | 35 |
| O=C(CCCCC(=O)Nc1ccc(-c2c(-c3ccc(OCCN4CCCCC4)cc3)c3ccccc3oc2=O)cc1)Nc1ccc(-c2c(-c3ccc(OCCN4CCCCC4)cc3)c3ccccc3oc2=O)cc1 | % | 40 |
| O=C(Nc1ccc(-c2c(-c3ccc(OCCN4CCCCC4)cc3)c3ccccc3oc2=O)cc1)c1cccc(C(=O)Nc2ccc(-c3c(-c4ccc(OCCN5CCCCC5)cc4)c4ccccc4oc3=O)cc2)c1 | % | 32 |

Turning now to a further record.
Q. Look up Activity: O=C(CC(=O)Nc1ccc(-c2c(-c3ccc(OCCN4CCCCC4)cc3)c3ccccc3oc2=O)cc1)Nc1ccc(-c2c(-c3ccc(OCCN4CCCCC4)cc3)c3ccccc3oc2=O)cc1
A. 47
